Cited source for all entries: the Kinase Knowledgebase extract (Sharma et al. 2016)

assayedSystem: PIK3CB;PIK3CG;PIK3CD;PIK3CA (human)
testName: Enzyme Assay
pIC50: −log10 of the molar value.
Criterion: pIC50 meeting or surpassing 6. Met: class 1. Not met: class 0.

For orientation, consider the following solved cases.
Cn1nc(C(=O)N2CCOCC2)c2c1-c1ccccc1S(=O)(=O)C2: class 0
NCc1ccc(-n2nc(C(=O)N3CCOCC3)c3c2-c2ccccc2S(=O)(=O)C3)cc1: class 1
O=C(c1nn([C@H]2CCCN(CCN3CCOCC3)C2)c2c1CS(=O)(=O)c1ccccc1-2)N1CCOCC1: class 1

Does the reported pIC50 for CN(C)C(=O)c1ccc2c(c1)-c1c(c(C(=O)N3CCOCC3)nn1-c1ccccc1)CS2(=O)=O fall at or above the 6 mark?
class 0

Can CCCCn1nc(C(=O)N2CCOCC2)c2c1-c1ccccc1S(=O)(=O)C2 be said to have pIC50 at or above 6?
class 1

Has CNc1cccc2c1S(=O)(=O)Cc1c(C(=O)N3CCOCC3)nn(-c3ccccc3)c1-2 a recorded pIC50 greater than or equal to 6?
class 0

Form field: pIC50 at least 6? Entry: O=C(c1nn([C@H]2CCCN(CCC3CCOCC3)C2)c2c1CS(=O)(=O)c1c(F)cccc1-2)N1CCOCC1
class 1

Say whether O=C(c1nn(C2CCN(CCn3cccn3)C2)c2c1CS(=O)(=O)c1ccccc1-2)N1CCOCC1 (centres undefined) shows pIC50 of 6 or more.
class 1

---

assayedSystem: UniProt P48736
testName: Enzyme Assay
measure: IC50
Answer as a quantity: numeral, then unit.

O=C(c1nn(Cc2ccccc2)c2c1CS(=O)(=O)c1ccccc1-2)N1CCOCC1: 1190 nM
CC(=O)NCCN1CCC[C@H](n2nc(C(=O)N3CCOCC3)c3c2-c2ccccc2S(=O)(=O)C3)C1: 105 nM
O=C(c1nn(C2CN(CCC3CCOCC3)C2)c2c1CS(=O)(=O)c1ccccc1-2)N1CCOCC1: 95 nM

Report IC50 on UniProt P48736 for this entry: CC(=O)N1CCC(Cn2nc(C(=O)N3CCOCC3)c3c2-c2ccccc2S(=O)(=O)C3)CC1
2820 nM

Write down measured IC50 (UniProt P48736) for this molecule. O=C(c1nn(C2CCCNCC2)c2c1CS(=O)(=O)c1ccccc1-2)N1CCOCC1 (stereo not drawn)
1900 nM

Give measured IC50 for O=C(c1nn(C2CCN(CCC3CCOCC3)C2)c2c1CS(=O)(=O)c1c(F)cccc1-2)N1CCOCC1 (stereo not drawn) (UniProt P48736).
21 nM

---

Entries and their IC50
assayedSystem: PIK3CB;PIK3CG;PIK3CD;PIK3CA (human)
testName: Enzyme Assay
Provide only the numeric value, understood in nM.

// below: answered compounds
COCCN1CCC(n2nc(C(=O)N3CCOCC3)c3c2-c2ccccc2S(=O)(=O)C3)CC1: 1920
CN(C)CCN1CCCC(n2nc(C(=O)N3CCOCC3)c3c2-c2ccccc2S(=O)(=O)C3)C1 (stereo not drawn): 72
O=C(c1nn([C@@H]2CCCN(CCC3CCOCC3)C2)c2c1CS(=O)(=O)c1ccccc1-2)N1CCOCC1: 2200
COCCn1nc(C(=O)N2CCOCC2)c2c1-c1ccccc1S(=O)(=O)C2: 1290
COCCN1CCC[C@H](n2nc(C(=O)N3CCOCC3)c3c2-c2ccc(OC)cc2S(=O)(=O)C3)C1: 93
COC1CCN(CCN2CCC[C@H](n3nc(C(=O)N4CCOCC4)c4c3-c3ccc(F)cc3S(=O)(=O)C4)C2)CC1: 13
O=C(c1nn([C@H]2CCCN(CCN3CC(F)(F)C3)C2)c2c1CS(=O)(=O)c1ccccc1-2)N1CCOCC1: 17

Please find the next compound below.
Note down IC50 recorded for CC1COCCN1CCN1CCC[C@H](n2nc(C(=O)N3CCOCC3)c3c2-c2ccccc2S(=O)(=O)C3)C1 (stereo partly drawn)
101
